Test system: HOP-62 NSCLC
Assay name: NCI-60 one-dose screen, 48 h (100 = growth as untreated, 0 = no growth, -100 = all killed)
Measurement parameters: 10 µM unless noted
About 83,000 compounds went through this panel and 20% of them were active in at least one assay; those are over-represented in the sample as a whole.
Observed property: growth (%)
Form entry: value (%) — number only.

Exam item: Recall the reported growth of CCOC(=O)c1[nH]c2cc(Cl)ccc2c1[C@@H](C(=O)NC(C)(C)C)N(CC)C(=O)CCCCC#Cc1cccc2c1CN(C1CCC(=O)NC1=O)C2=O (stereo partly specified) when tested on HOP-62 NSCLC.
Marked response: 20.7

Exam item: Recall the reported growth of NC(=O)c1cccc(-n2ccc3cc(NC(=O)Nc4ccc(Cl)c(Cl)c4)ccc32)n1 when tested on HOP-62 NSCLC.
Marked response: 81.1

Exam item: Recall the reported growth of O=[N+]([O-])c1ccc(O)c2ncccc12 when tested on HOP-62 NSCLC.
Marked response: 50.9

Exam item: Recall the reported growth of Nc1nc2c(s1)CCc1c-2c(Br)n(Cc2ccccc2)c1Br when tested on HOP-62 NSCLC.
Marked response: 64.9

Exam item: Recall the reported growth of CCOc1ccc(-c2cnnn2-c2nonc2-n2cccc2)cc1 when tested on HOP-62 NSCLC.
Marked response: 31.6

Exam item: Recall the reported growth of Clc1cccc(Cl)c1Nc1ccc2nnc(-c3ccncc3)n2n1 when tested on HOP-62 NSCLC.
Marked response: 103

* * *

Tested on: T-47D breast
Assay name: NCI-60 one-dose screen, 48 h
Measurement parameters: 10 µM
About 83,000 compounds went through this panel and 20% of them were active in at least one assay; those are over-represented in the sample as a whole. Active and inactive are the calls of the source. The calls were made as follows: active = growth percent below 10; inactive = the rest.
Tick one outcome: true (1) (active), false (0) (inactive)

Exam item: // return assay outcome for FC(F)(F)c1cc(CNc2nc(Cl)ncc2Br)cc(C(F)(F)F)c1
Marked response: false (0)

Exam item: // return assay outcome for COc1ccc(OC)c2ncccc12
Marked response: false (0)

Exam item: // return assay outcome for O=C(Nc1ccc(Cl)c(Cl)c1)OCn1ncc2ccc([N+](=O)[O-])cc21
Marked response: false (0)

Exam item: // return assay outcome for CN1CCN(C)c2cncc(Br)c2C1=O
Marked response: false (0)

Exam item: // return assay outcome for C[C@@H](Oc1cc(-c2cnn(C3CC4(CCNCC4)C3)c2)cnc1N)c1c(F)ccc(Cl)c1Cl
Marked response: true (1)

Exam item: // return assay outcome for NC1=NC(c2ccccc2OS(=O)(=O)c2ccc(Br)cc2)n2c(nc3ccccc32)N1 (stereo unspecified)
Marked response: false (0)

Exam item: // return assay outcome for O/N=C/c1cccs1
Marked response: false (0)

Exam item: // return assay outcome for COc1ccc(/C=C2\CN(Cc3cn(CCCNc4ccnc5cc(Cl)ccc45)nn3)C/C(=C\c3ccc(OC)cc3)C2=O)cc1
Marked response: false (0)

Exam item: // return assay outcome for CCCCC(=O)N/N=C/c1cc(I)cc(I)c1O
Marked response: false (0)

Exam item: // return assay outcome for Cc1nc2cc(Nc3nc(NCCN)nc(Nc4ccc(F)cc4)n3)ccc2n1Cc1ccccc1
Marked response: false (0)

Exam item: // return assay outcome for CCCN(CCC)c1ccc(/C=C/c2ccc3cc(OCC)ccc3n2)cc1
Marked response: false (0)

Exam item: // return assay outcome for FC(F)(F)c1ccc2c(c1)n1cnnc1c1nncn21
Marked response: false (0)

Exam item: // return assay outcome for CN1CCC(OC2c3ccccc3CCc3ccccc32)CC1
Marked response: false (0)

Exam item: // return assay outcome for CC1(C)N=C(N)N=C(N)N1c1cccc(OCCOc2cccc([N+](=O)[O-])c2)c1
Marked response: false (0)

Exam item: // return assay outcome for COc1nc2c(cc1S(=O)(=O)c1ccccc1)CCc1c-2cnn1-c1ccccc1Cl
Marked response: false (0)

Exam item: // return assay outcome for COc1ccc(Nc2nc(NCCNc3ccnc4cc(Cl)ccc34)nc(N3CCOCC3)n2)cc1
Marked response: false (0)

Exam item: // return assay outcome for O=C(COc1ccc(/C=C2\CSc3ccccc3C2=O)cc1)c1ccc(Cl)cc1
Marked response: false (0)

Exam item: // return assay outcome for COc1ccc(S(=O)(=O)c2ccc(C(N)=O)cc2)cc1NC(=O)c1[nH]c(C)c2c1CCCCC2=O
Marked response: false (0)

Exam item: // return assay outcome for COc1ccc(NC(=O)c2ccc3c(c2)nc(-c2ccc(Cl)cc2)n3-c2cc(C(C)(C)C)[nH]n2)cc1
Marked response: false (0)

Exam item: // return assay outcome for Cn1c2c(cc(S(=O)(=O)c3ccccc3)c1=O)CCc1c-2cnn1-c1cccc(Cl)c1
Marked response: false (0)

Exam item: // return assay outcome for O=C(CC(O)c1ccccc1)Nc1ccccn1 (stereo unspecified)
Marked response: false (0)

Exam item: // return assay outcome for Clc1ccc(Nc2nc(Nc3ccccc3)nc(Nc3ccc(-c4cc(-c5ccc(Cl)cc5)on4)cc3)n2)cc1
Marked response: false (0)

Exam item: // return assay outcome for COc1ccc(-c2[nH]ncc2Nc2cc(OC)c(OC)c(OC)c2)cc1
Marked response: false (0)

Exam item: // return assay outcome for COc1cccc(Nc2nc(NCCO)c3ccccc3n2)c1
Marked response: false (0)

Exam item: // return assay outcome for C=CC(=O)N1CC2(CC(n3nc(-c4ccc(Oc5ccccc5)cc4)c4c(N)ncnc43)C2)C1
Marked response: false (0)

Exam item: // return assay outcome for CON=C1C[C@]2(C[C@@H]3C[C@@H](C/C=C(\C)C[C@@H](C)/C=C/C=C4\CO[C@@H]5[C@H](O)C(C)=C[C@@H](C(=O)O3)[C@]45O)O2)O[C@H](/C(C)=C/C(C)C)[C@H]1C
Marked response: false (0)

Exam item: // return assay outcome for O=C1C(Cl)=C(NCCCN2CCOCC2)C(=O)c2ccccc21
Marked response: false (0)

Exam item: // return assay outcome for O=C1CC2c3cc(-c4cc5ccccc5o4)ccc3CCN2C(=O)N1c1ccccc1 (stereo unspecified)
Marked response: false (0)

Exam item: // return assay outcome for COc1ccc(C(=O)COc2cccc(/C=C3\CSc4ccc(C)cc4C3=O)c2)cc1
Marked response: false (0)

Exam item: // return assay outcome for CCOC(=O)c1cc2c(n(C)c1=O)-c1cnn(-c3ccc(OC)cc3)c1CC2
Marked response: false (0)

Exam item: // return assay outcome for Clc1nc(-c2ccccn2)nc2sc3c(c12)CCCCCC3
Marked response: false (0)

Exam item: // return assay outcome for CC(C)(C)CC(C)(C)N(CSc1ccc(Cl)cc1)CSc1ccc(Cl)cc1
Marked response: false (0)

Exam item: // return assay outcome for COc1ccc(/C=C(\C#N)c2ccc(OC)cc2)cc1
Marked response: false (0)

Exam item: // return assay outcome for COc1cc(/C=C/c2cc(/C=C/c3ccc(O)c(OC)c3)n(-c3ccccc3)n2)ccc1O
Marked response: true (1)

Exam item: // return assay outcome for O=[N+]([O-])c1cc2c(cc1Br)-c1ccccc1C2
Marked response: false (0)

Exam item: // return assay outcome for Cc1ccc(S(=O)(=O)c2ccc3[nH]c(=O)[nH]c(=O)c3c2)cc1
Marked response: false (0)

Exam item: // return assay outcome for Clc1ccc(Nc2ccnc(N3CCN(c4ccnc5cc(Cl)ccc45)CC3)n2)cc1
Marked response: false (0)

Exam item: // return assay outcome for CCOC(=O)c1sc(NC(=O)CN2CCC(Cc3ccccc3)CC2)nc1C
Marked response: false (0)

Exam item: // return assay outcome for C1CCC([PH+](C2CCCCC2)C2CCCCC2[PH+](C2CCCCC2)C2CCCCC2)CC1.O=C(C1[CH-]CCCC1)C1CCCC[N-]1.[Au] (stereo unspecified)
Marked response: false (0)

Exam item: // return assay outcome for CCN1CCN(C(=S)SCC(=O)Nc2nc3ccc(OC)cc3s2)CC1
Marked response: false (0)

Exam item: // return assay outcome for O=c1[nH]c(=S)[nH]c(=O)n1Cc1cccc2ccccc12
Marked response: false (0)

* * *

Tested on: HOP-92 NSCLC
Assay name: NCI-60 one-dose screen, 48 h (100 = growth as untreated, 0 = no growth, -100 = all killed)
Measurement parameters: 10 µM unless noted
Compounds without any hit were thinned out: in the full panel of roughly 83,000, 20% have a hit.
Exercise: state measured growth for each of the molecules provided.
Form entry: value (%) — number only.

Exam item: Item Oc1ccccc1/C=N/Nc1nc2ccccc2s1 : provide growth
Marked response: 44.5

Exam item: Item Oc1ccc2ccccc2c1C1NN=C(c2ccccc2)S1 (stereo not given) : provide growth
Marked response: 42.8

Exam item: Item COc1cc(/C=N/NC(=O)c2cnn3c2NC(c2ccccc2)C3)cc(OC)c1OC (stereo not given) : provide growth
Marked response: 76

Exam item: Item COc1ccc(/C=C2\CN(Cc3cn(CCCNc4ccnc5cc(Cl)ccc45)nn3)C/C(=C\c3ccc(OC)cc3)C2=O)cc1 : provide growth
Marked response: 53.8

Exam item: Item CCOC(=O)c1cnn(CC(O)c2ccc(F)cc2)c1NC(=O)Nc1ccccc1F (stereo not given) : provide growth
Marked response: 102

Exam item: Item COc1cc2oc(-c3ccc(O)cc3)cc(=O)c2c(O)c1I : provide growth
Marked response: 113

Exam item: Item Cc1cc(=O)[nH]n1-c1cc(Cl)ccc1N : provide growth
Marked response: 114

Exam item: Item COc1cc(-c2nc(SC(C)C)nc(Nc3cccc(C)c3)c2C#N)cc(OC)c1OC : provide growth
Marked response: 106

Exam item: Item COc1ccc(-c2nc3sc(C)nn3c2-c2nc3cc(C)c(C)cc3[nH]2)cc1 : provide growth
Marked response: 87.9

Exam item: Item C=C[C@H]1C[C@@H]2C[C@@H]3[C@H]4C/C=C\C(=O)NCCCC5NC(=O)C(=C(O)/C=C/[C@@H]4CC(=O)[C@H]3[C@@H]2[C@H]1C)C5=O (stereo not given in full) : provide growth
Marked response: -85.7

Exam item: Item O=C1CC2c3cc(-c4cc5ccccc5o4)ccc3CCN2C(=O)N1c1ccccc1 (stereo not given) : provide growth
Marked response: 47.2

Exam item: Item Cc1cc(NS(=O)(=O)c2ccc(NC(=O)COc3ccc(-c4cc5ccccc5[nH]4)cc3)cc2)no1 : provide growth
Marked response: 5.04

Exam item: Item O=C(O)CCN1CCN(c2cccc(Cl)c2)CC1 : provide growth
Marked response: 110

Exam item: Item CCOC(=O)C1=C(C)N2C(=NC3=C(CCCC/C3=C\c3ccccc3)C2c2ccccc2)S1 (stereo not given) : provide growth
Marked response: -2.46

Exam item: Item CCN1CCN(C(=S)SCC(=O)Nc2nc3ccc(OC)cc3s2)CC1 : provide growth
Marked response: 83.8

Exam item: Item C[C@@H](Oc1cc(-c2cnn(C3CC4(CCCNC4)C3)c2)cnc1N)c1c(Cl)ccc(F)c1Cl (stereo not given in full) : provide growth
Marked response: -7.41

Exam item: Item O=C1CCC(N2Cc3c(C#CCCCNC(=O)c4cc5c(o4)C(=O)c4ccccc4C5=O)cccc3C2=O)C(=O)N1 (stereo not given) : provide growth
Marked response: 52.3

Exam item: Item Cn1cc(C(=O)NCCC(=N)N)cc1NC(=O)CN=C(N)N : provide growth
Marked response: 89.5

Exam item: Item COc1ccc(C2CC(c3cc(OC)c(OC)c(OC)c3)=NN2c2ccc(S(N)(=O)=O)cc2)cc1 (stereo not given) : provide growth
Marked response: 27.8

Exam item: Item FC(F)(F)c1ccc2c(c1)n1cnnc1c1nncn21 : provide growth
Marked response: 88.7
